# log10 of Ke per entry
tested on: Delta-type opioid receptor; assay: Antagonist activity at delta opioid receptor expressed in rat/mouse NG108-15 cells assessed as [35S]GTPgammaS binding by scintillation counting analysis; type: functional, cell-based
On a log10 scale: recorded Ke, unit nM.

Delta-type opioid receptor log10 of Ke of O=C(Cc1ccccc1)O[C@@]12Cc3cc(-c4ccc(Cl)cc4)cnc3[C@@H]3Oc4c(O)ccc5c4[C@@]31CCN(CC1CC1)[C@@H]2C5 is -0.43

API: the following record is the query input.
Delta-type opioid receptor log10 of Ke of O=C(CCc1ccccc1)O[C@@]12Cc3cc(-c4ccc(Cl)cc4)cnc3[C@@H]3Oc4c(O)ccc5c4[C@@]31CCN(CC1CC1)[C@@H]2C5 is 0.27

----------
target: UniProtKB P41145; assay: Binding affinity to kappa opioid receptor by radioligand binding assay
Sequence (P41145 whole entry): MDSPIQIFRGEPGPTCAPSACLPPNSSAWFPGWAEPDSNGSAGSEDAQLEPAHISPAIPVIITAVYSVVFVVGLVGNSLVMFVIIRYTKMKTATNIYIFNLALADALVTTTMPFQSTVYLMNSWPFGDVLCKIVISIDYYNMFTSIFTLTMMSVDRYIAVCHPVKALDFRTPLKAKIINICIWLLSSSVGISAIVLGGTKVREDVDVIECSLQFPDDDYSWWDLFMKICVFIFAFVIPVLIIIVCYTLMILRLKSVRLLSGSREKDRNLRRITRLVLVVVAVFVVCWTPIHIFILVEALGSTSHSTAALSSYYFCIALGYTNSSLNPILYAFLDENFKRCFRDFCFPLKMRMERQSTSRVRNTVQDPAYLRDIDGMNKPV
# Ki per entry
Response body: numeric value in nM, unit text excluded.

UniProtKB P41145 Ki of CN1CC[C@]23c4c5ccc(O)c4O[C@H]2c2ncc(-c4ccc(Cl)cc4)cc2C[C@@]3(O)[C@H]1C5 is 468

UniProtKB P41145 Ki of Oc1ccc2c3c1O[C@H]1c4ncc(-c5ccc(Cl)cc5)cc4C[C@@]4(O)[C@@H](C2)N(CC2CC2)CC[C@]314 is 20

----------
system: Delta-type opioid receptor; test: Antagonist activity at delta opioid receptor expressed in rat/mouse NG108-15 cells assessed as [35S]GTPgammaS binding by scintillation counting analysis; type: functional, cell-based
ASSAY METRIC: Ke (nM)
Response body: numeric value in nM, unit text excluded.

Please fill in: Ke reported for O=C(O[C@@]12Cc3cc(-c4ccc(Cl)cc4)cnc3[C@@H]3Oc4c(O)ccc5c4[C@@]31CCN(CC1CC1)[C@@H]2C5)c1ccccc1 = 218

Please fill in: Ke reported for Oc1ccc2c3c1O[C@H]1c4ncc(-c5ccc(Cl)cc5)cc4C[C@@]4(OCc5ccccc5)[C@@H](C2)N(CC2CC2)CC[C@]314 = 0.64

Please fill in: Ke reported for CN1CC[C@]23c4c5ccc(O)c4O[C@H]2c2ncc(-c4ccc(Cl)cc4)cc2C[C@@]3(OC(=O)c2ccccc2)[C@H]1C5 = 45

API: the following record is the query input.
Please fill in: Ke reported for Oc1ccc2c3c1O[C@H]1c4ncc(-c5ccc(Cl)cc5)cc4C=C4[C@@H](C2)N(CC2CC2)CC[C@]431 = 0.58

----------
test system: Mus musculus; assay: Antinociceptive activity in icv dosed ICR mouse assessed as warm-water tail-withdrawal latency by tail flick assay; type: functional
ASSAY METRIC: A50 (nmol)
Response body: numeric value in nmol, unit text excluded.

Reference set (4 entries):
Please fill in: A50 reported for CN1CC[C@]23c4c5ccc(O)c4O[C@H]2[C@@H](O)C=C[C@H]3[C@H]1C5 [MORPHINE] = 0.43

Please fill in: A50 reported for CN1CC[C@]23c4c5ccc(O)c4O[C@H]2c2ncc(-c4ccc(Cl)cc4)cc2C[C@@]3(OC/C=C/c2ccccc2)[C@H]1C5 = 0.23

Please fill in: A50 reported for CO[C@@]12Cc3cc(-c4ccc(Cl)cc4)cnc3[C@@H]3Oc4c(O)ccc5c4[C@@]31CCN(C)[C@@H]2C5 = 1.44

Please fill in: A50 reported for Oc1ccc2c3c1O[C@H]1c4ncc(-c5ccc(Cl)cc5)cc4C[C@@]4(OCCCc5ccccc5)[C@@H](C2)N(CC2CC2)CC[C@]314 = 0.35

API: the following record is the query input.
Please fill in: A50 reported for CN1CC[C@]23c4c5ccc(O)c4O[C@H]2c2ncc(-c4ccc(Cl)cc4)cc2C[C@@]3(OCCCc2ccccc2)[C@H]1C5 = 0.23
